I'd appreciate it if you could supply interaction score values for the items below.
Biological target: T1, 4H3655-AA
T1 chain: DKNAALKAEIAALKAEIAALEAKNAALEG
Experiment: two-hybrid library CCmax;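 note: natural log of median RNA to DNA barcode read ratio; higher means stronger binding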
Settings: mean of both orientations
I'd appreciate a reply containing only the number, no unit.

For the binder DKIAALKAKNAALEAEIAALEAKIAALEG [4H2949-AA] , what interaction score is on record?
-1.3

Lookup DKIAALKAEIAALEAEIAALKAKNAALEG [4H2575-AA]
-0.814

Lookup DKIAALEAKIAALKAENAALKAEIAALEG [4H2393-AA]
-1.41

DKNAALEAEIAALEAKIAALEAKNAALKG [4H3112-AA] ?
-0.414

Follow-up entry: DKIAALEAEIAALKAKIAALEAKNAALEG [4H2151-AA]
-0.942

Input DKNAALEAKIAALEAEIAALKAKNAALEG [4H3343-AA]
-1.03

Record: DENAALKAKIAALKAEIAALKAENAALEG [4H1867-AA]
-0.0304

Now try DEIAALEAKIAALKAEIAALKAKNAALEG [4H335-AA] .
0.662

Could you do the same for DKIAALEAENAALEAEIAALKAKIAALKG [4H2190-AA] , please?
1.73

Another binder: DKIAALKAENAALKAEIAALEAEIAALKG [4H2754-AA]
-1.51

What do you have for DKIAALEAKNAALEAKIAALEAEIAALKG [4H2466-AA] ?
-1.35

Another binder: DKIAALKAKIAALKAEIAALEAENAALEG [4H2883-AA]
0.159

Same for DKNAALKAEIAALEAKIAALKAENAALEG [4H3627-AA]
-0.0982

// query: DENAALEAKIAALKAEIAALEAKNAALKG [4H1352-AA]
0.863
